Consider the following molecules; for each one, report its pIC50.
test system: 3D co-culture spheroids of MDA-MB-231 and primary murine CAFs; experiment: 3D cell viability (ATP content) in TNBC co-culture spheroids; format: cell-based, human MDA-MB-231; conditions: Mus musculus, MDA-MB-231, 72 h, read-out: Reduction of Cell Viability 72 h IC50, 3D co-culture spheroids, 72 h treatment, mean ± SD (n = 3)
Note on pIC50: it is the negative log10 of concentration, concentration in mol/L.

Request: Quick check: pIC50 of COc1ccc2c3c(c4cc(OC)c(OC)cc4c2c1)CN1CCCC1C3O (centres unmarked) ?
Response: 7.95

Request: Now give it for `COc1ccc2c3c(c4cc(OC)c(OC)cc4c2c1)CN1CCC[C@H]1C3` too.
Response: 6.29
